Entries annotated with measured pIC50
Test: Antiproliferative activity against human WM164 cells after 48 hrs by SRB assay
Format: functional, cell-based
Details: WM164, 48 h
Please treat pIC50 as minus the base-10 logarithm of the molar concentration.

Illustrative cases are given below, each with its answer.
Compound	pIC50
CCCCCCCCCCCCCCCCNC(=O)[C@@H]1CSC(c2cc(OC)c(OC)c(OC)c2)N1 (stereo not given in full)	6.15
CNC(=O)c1cc(Oc2ccc(NC(=O)Nc3ccc(Cl)c(C(F)(F)F)c3)cc2)ccn1	5.31
CCCCCCCCCCNC(=O)[C@@H]1CSC(c2ccc3c(c2)OCO3)N1 (stereo not given in full)	5.35
CCCCCCCCCCCCNC(=O)[C@@H]1CSC(c2ccc3c(c2)OCO3)N1 (stereo not given in full)	5.60

Continue with the compound presented below.
// query Request the reported pIC50 associated with CCCCCCCCCCCCCCCCNC(=O)[C@@H]1CSC(c2ccc3c(c2)OCO3)N1 (stereo not given in full)
// result 5.74

---

Experiment: Antiproliferative activity against human WM164 cells after 48 hrs by SRB assay
Format: functional, cell-based
Conditions: WM164, 48 h
Quantity: IC50 (µM)
Provide the reading as a plain figure in µM.

Molecule	IC50 / µM
CCCCCCCCCCNC(=O)[C@@H]1CSC(c2cc(OC)c(OC)c(OC)c2)N1 (stereo not given in full)	2.1
CCCCCCCCCCCCCCNC(=O)[C@@H]1CSC(c2ccc(OC)c(OC)c2)=N1	42.9

// query Requested read-out: IC50. Entry: CCCCCCCCCCCCCCNC(=O)[C@@H]1CSC(c2ccc3c(c2)OCO3)N1 (stereo not given in full)
// result 1

// query Can you share its IC50? I mean this molecule: CCCCCCCCCCCCNC(=O)[C@@H]1CSC(c2ccc(OC)c(OC)c2)N1 (stereo not given in full)
// result 1.6

// query Entry under review: CCCCCCCCCCCCNC(=O)[C@@H]1CSC(c2ccc(NC(C)=O)cc2)N1 (stereo not given in full) . Reported IC50?
// result 1.2

// query Query (molecule): CCCCCCCCCCCCNC(=O)[C@@H]1CSC(c2cc(OC)c(OC)c(OC)c2)N1 (stereo not given in full) ; field requested: IC50
// result 2.4

---

Test: Antiproliferative activity against human WM164 cells after 48 hrs by SRB assay
Format: functional, cell-based
Details: WM164, 48 h
Quantity: IC50 (nM)
Respond numerically; units are nM and should not be typed.

Molecule	Measurement Unit	Quantitative Readout
CCCCCCCCCCCCCCCCNC(=O)[C@@H]1CSC(c2ccccc2)N1 (some centres undefined)	nM	700
CCCCCCCCC/C=C/CCCCCCCNC(=O)[C@@H]1CSC(c2ccc(NC(C)=O)cc2)N1 (some centres undefined)	nM	1400

// query Sample CCCCCCCCCCCCCCNC(=O)[C@@H]1CSC(c2cc(OC)c(OC)c(OC)c2)N1 (some centres undefined) — what was its IC50?
// result 1600

---

Assay: Antiproliferative activity against human WM164 cells after 48 hrs by SRB assay
Assay type: functional, cell-based
Settings: WM164, 48 h
Quantity: IC50

// query What does the data say about its IC50? Entry: CCCCCCCCCCCCCCCCNC(=O)[C@@H]1CSC(c2ccc(OC)c(OC)c2)N1 (stereo not given in full)
// result 500 nM

// query Reported IC50, compound CCCCCCCCCCCCCCCCNC(=O)[C@@H]1CSC(c2ccc(NC(C)=O)cc2)N1 (stereo not given in full) : ____
// result 600 nM

// query Sample CCCCCCCCCCCCCCNC(=O)[C@@H]1CSC(c2ccc(OC)c(OC)c2)N1 (stereo not given in full) — what was its IC50?
// result 800 nM

// query If you can, please state the reported IC50 value of CCCCCCCCCCCCNC(=O)[C@@H]1CSC(c2ccc(N)cc2)N1 (stereo not given in full) .
// result 1400 nM

// query Fill blank: measured IC50 of the compound CCCCCCCCCCCCCCCCNC(=O)[C@H]1CSC(c2ccc(NC(C)=O)cc2)N1 (stereo not given in full) is ____.
// result 1400 nM

---

Test: Antiproliferative activity against human WM164 cells after 48 hrs by SRB assay
Format: functional, cell-based
Conditions: WM164, 48 h
Quantity: pIC50
Bear in mind: pIC50 is minus log10 of a mol/L concentration; give just that figure.

Here's what some known entries look like.
Compound	Quantitative Readout
CCCCCCCCCCCCCCNC(=O)[C@@H]1CSC(c2ccccc2)N1 (stereo not given in full)	6.22
CCCCCCCCCCCCCCNC(=O)[C@H]1CSC(c2cc(OC)c(OC)c(OC)c2)N1 (stereo not given in full)	5.96
CCCCCCCCCCCCCCCCCCNC(=O)[C@@H]1CSC(c2ccc(NC(C)=O)cc2)N1 (stereo not given in full)	4.94
CCCCCCCCC/C=C\CCCCCCCNC(=O)[C@@H]1CSC(c2ccc(NC(C)=O)cc2)N1 (stereo not given in full)	6.00
CCCCCCCCNC(=O)[C@@H]1CSC(c2cc(OC)c(OC)c(OC)c2)N1 (stereo not given in full)	4.71
CCCCCCCCCCNC(=O)[C@@H]1CSC(c2ccc(OC)c(OC)c2)N1 (stereo not given in full)	5.21
CCCCCCCCCCCCCCCNC(=O)[C@@H]1CSC(c2ccc(NC(C)=O)cc2)N1 (stereo not given in full)	6.00
CCCCCCCCCCCCCCCCCNC(=O)[C@@H]1CSC(c2ccc(NC(C)=O)cc2)N1 (stereo not given in full)	5.62
CCCCCCCCCCCCCCNC(=O)[C@@H]1CSC(c2ccc(NC(C)=O)cc2)N1 (stereo not given in full)	6.22

// query Please report the recorded pIC50 for CCCCCCCCCCCCCCCCNC(=O)[C@@H]1CSC(c2ccc(N)cc2)N1 (stereo not given in full) .
// result 5.85

---

Below, each entry is listed alongside its reported IC50.
Test: Antiproliferative activity against human WM164 cells after 48 hrs by SRB assay
Assay type: functional, cell-based
Conditions: WM164, 48 h

// query Could you share which IC50 value was measured for CCCCCCCCCCCCCCCCNC(=O)[C@@H]1CSC(c2ccc(NC(C)=O)cc2)N1C (some centres undefined) ?
// result > 100 µM

// query Given the compound CON(C)C(=O)[C@@H]1CSC(c2ccccc2)N1 (some centres undefined) , what is its reported IC50?
// result > 100 µM

// query Form field: reported IC50 of CN(C)/N=N/c1[nH]cnc1C(N)=O [DACARBAZINE]
// result > 100 µM

// query Please report the recorded IC50 for COc1cc(C2SCC3C(=O)N4C(CSC4c4cc(OC)c(OC)c(OC)c4)C(=O)N32)cc(OC)c1OC (centres undefined) .
// result > 50 µM
